The reported numbers originate from the supplement of paper PMC10567573.

B1: MED27 (parent)
chain: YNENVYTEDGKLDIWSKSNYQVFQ

# Variants of: B1
# method-notes: protein stability index of a GFP-peptide fusion (GPS, HEK-293T) (PSI 1-6); higher = more stable;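 note: lentivirally expressed fusions sorted by FACS into six bins by GFP to DsRed ratio, PSI derived from sequencing read proportions per bin multiplied by bin number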
# assay-context: c terminus: a fixed tail appended
observable: protein stability index

In: So what does the record say about protein stability index for I14T ?
Out: 2.78
